Test system: A-375
Assay: Cytotoxicity against human A-375 cells assessed as reduction in cell viability by MTT assay
Format: functional, cell-based
Item-by-item account of IC50
Report only the number, with the unit µM understood.

Some solved entries appear below for comparison.
>>> df
                                smiles_code  endpoint_result
0  O=S(=O)(NCCCNc1nccc(-c2c(-c3cccc(F)c3)nc3sccn23)n1)c1ccc(Br)cc1             7.04
1  O=S(=O)(NCCCNc1nccc(-c2c(-c3cccc(F)c3)nc3sccn23)n1)c1cccc(F)c1             13.7
2  O=S(=O)(NCCNc1nccc(-c2c(-c3cccc(F)c3)nc3sccn23)n1)c1ccccc1               11

Asked: Entry `O=S(=O)(NCCCNc1nccc(-c2c(-c3cccc(F)c3)nc3sccn23)n1)c1ccc(C(F)(F)F)cc1` needs its IC50 filled in; supply it.
Given back: 4.09

Asked: Supply recorded IC50 for `O=S(=O)(NCCNc1nccc(-c2c(-c3cccc(F)c3)nc3sccn23)n1)c1cccc(F)c1` here.
Given back: 14.9

Asked: Provide IC50 value for the following molecule: `O=S(=O)(NCCNc1nccc(-c2c(-c3cccc(F)c3)nc3sccn23)n1)c1ccc(F)cc1`
Given back: 9.45

Asked: Quote IC50 reported for `Cc1ccc(S(=O)(=O)NCCCNc2nccc(-c3c(-c4cccc(F)c4)nc4sccn34)n2)cc1` please.
Given back: 8.38

Asked: # return recorded IC50 for input `O=C(NCCNc1nccc(-c2c(-c3cccc(F)c3)nc3sccn23)n1)c1ccccc1`
Given back: 5.06

Asked: Please look at this molecule and report its IC50: `O=S(=O)(NCCCNc1nccc(-c2c(-c3cccc(F)c3)nc3sccn23)n1)c1ccc(F)cc1`
Given back: 14.5

---

The following compounds are shown together with reported viability at 10 µM values.
Test system: RXF 393
Assay: Cytotoxicity against human RXF 393 cells assessed as cell viability at 10 uM incubated for 48 hrs by sulforhodamine B assay relative to control
Assay type: functional
Test Conditions: read-out: Activity
Report only the number, with the unit % understood.

Past entries and their recorded results:
                                smiles_code              metric  endpoint_result
0  O=S(=O)(NCCCNc1nccc(-c2c(-c3cccc(F)c3)nc3sccn23)n1)c1ccc(Br)cc1  viability at 10 µM             81.8
1  O=C(NCCCNc1nccc(-c2c(-c3cccc(F)c3)nc3sccn23)n1)c1ccc(F)cc1  viability at 10 µM             77.3
2  O=C(NCCNc1nccc(-c2c(-c3cccc(F)c3)nc3sccn23)n1)c1ccc(Cl)cc1  viability at 10 µM             72.9
3  O=C(NCCCNc1nccc(-c2c(-c3cccc(F)c3)nc3sccn23)n1)c1ccc(C(F)(F)F)cc1  viability at 10 µM             74.6
4  O=S(=O)(NCCNc1nccc(-c2c(-c3cccc(F)c3)nc3sccn23)n1)c1ccc(Br)cc1  viability at 10 µM             72.7

Asked: Dear colleague, please send me the reported viability at 10 µM for `O=S(=O)(NCCCNc1nccc(-c2c(-c3cccc(F)c3)nc3sccn23)n1)c1ccc(Cl)cc1` when you can.
Given back: 99.6

Asked: Hello, please tell me recorded viability at 10 µM for this one: `O=C(NCCNc1nccc(-c2c(-c3cccc(F)c3)nc3sccn23)n1)c1ccc(C(F)(F)F)cc1`
Given back: 81.9

Asked: Tell us which viability at 10 µM value is on record for `O=C(NCCNc1nccc(-c2c(-c3cccc(F)c3)nc3sccn23)n1)C1CCCCC1`
Given back: 78.2

Asked: Identify the reported viability at 10 µM for the following entry. `O=S(=O)(NCCNc1nccc(-c2c(-c3cccc(F)c3)nc3sccn23)n1)c1cccc(F)c1`
Given back: 80.2

Asked: Determine its reported viability at 10 µM: `O=S(=O)(NCCCNc1nccc(-c2c(-c3cccc(F)c3)nc3sccn23)n1)c1ccc(F)cc1`
Given back: 85

Asked: For the compound `O=S(=O)(NCCCNc1nccc(-c2c(-c3cccc(F)c3)nc3sccn23)n1)c1cccc2ccccc12` , report viability at 10 µM.
Given back: 62.9

Asked: Entry `O=S(=O)(NCCNc1nccc(-c2c(-c3cccc(F)c3)nc3sccn23)n1)c1ccc(Cl)cc1` needs its viability at 10 µM filled in; supply it.
Given back: 69

The measurements presented in this section are drawn from ChEMBL document CHEMBL4665642.
